# System: LOX IMVI
# experimentSummary: NCI tumour cell line growth inhibition, 48 h
The source made the active and inactive calls. Cut-off read from the data, not from the text of the source: active = GI50 up to about 1.1 µM and inactive = higher.
Outcomes: TRUE (active), FALSE (inactive)

1) COC(=O)C(/C(=N\O)C(=O)Nc1ccc(Br)cc1)c1nc2ccccc2nc1O (stereo not drawn)	FALSE
2) COc1ccc(C#CCC(OC2OC(CO)C(O)C(O)C2O)C(O)c2ccc(OC)c(OC)c2)cc1OC (stereo not drawn)	FALSE
3) Nc1c(-c2ccccc2[N+](=O)[O-])nc2ccccn12	FALSE
4) CC(C)(C)OC(=O)N1CCC(NC(=O)NC2CCN(C(=O)OC(C)(C)C)CC2)CC1	FALSE
5) COc1cc2cc(C(=O)N3C[C@@H](CCl)c4c3cc(N)c3ccccc43)[nH]c2c(OC)c1OC	TRUE
6) Cc1ccc(/C=C/C(=O)c2cc(CN(C)C)c(O)c(CN(C)C)c2)cc1	FALSE
7) C/C(=N\n1c(Cc2ccccc2)n[nH]c1=O)c1ccc([N+](=O)[O-])cc1	FALSE
8) BrC(Br)=C1C(=C(Br)Br)C(Br)C1Br (stereo not drawn)	TRUE
9) CCOC(=O)c1cc2cc(C)cc(C(=O)c3ccc([N+](=O)[O-])cc3)c2[nH]1	FALSE
10) CCn1cnnc1-c1nsc2ccccc12	FALSE
11) COP(=O)(CC(=O)C1OC(C)(C)OC1C(O)COCc1ccccc1)OC (stereo not drawn)	FALSE
12) C/C(=C/CC[C@](C)(OC1OC(CO)C(O)C(O)C1O)[C@H]1CC[C@]2(C)[C@@H]1CC[C@@H]1[C@@]3(C)CC[C@H](O)C(C)(C)[C@@H]3C[C@H](O)[C@]12C)CO (stereo partly drawn)	FALSE
13) COc1cc(OC)c(OC)cc1/C=N/NC(=O)N/N=C/c1cc(OC)c(OC)cc1OC	FALSE
14) O=C(CC1(O)C(=O)Nc2c(Cl)cc(Cl)cc21)c1ccc(Br)cc1Br (stereo not drawn)	FALSE
15) CCOC(=O)c1cc(-c2ccc(OC)c(OC)c2)cn1C	FALSE
16) COc1c(OC/C=C(\C)CCC=C(C)C)ccc2ccc(=O)oc12	FALSE
17) CC(C)(C)c1cc(Cc2ccc(S(C)(=O)=O)cc2)c(O)c(C(C)(C)C)c1	FALSE
18) Cc1cn(CCCCC2=NCCCN2)c(=O)[nH]c1=O	FALSE
